Numbers sourced from patent US9023793B2.

assay: clinical; details: human, in vivo, inhaled or intranasal, 300 ug
*1 amine or outer side, *2 acyl side, *3 side chain or, on linkers, in order; H or OH if unused. Where a SMILES comes first, the peptide text is derived from it. Bridges are numbered along the chain shown (N, C = ends). X1 = O=C(CCC[*:2])[*:1]

- compound: "CC[C@H](C)[C@@H]1NC(=O)[C@H](Cc2ccc(OC)cc2)NC(=O)CCCSC[C@@H](C(=O)N2CCC[C@H]2C(=O)N[C@@H](CC(C)C)C(=O)NCC(N)=O)NC(=O)[C@H](CC(N)=O)NC(=O)[C@H](CCC(N)=O)NC1=O [carbetocin] (Y(Me)IQNCPLG-NH2; linker N-5 via X1 (inferred))"
  AUC(0-t), ng·h/mL: 0.25
